target or test system: human HER3 endogenously expressed on human cancer cells (SK-Br-3, BT-474, MCF7) (human, UniProt P21860 20-1342)
test details: cell-based or functional assay
Lab note - cut at 200 pM for MCF7 pHER3 IC50: Met if strictly below, Not met if not.

Q. Here's an entry: MOR13665 (antibody, human IgG1, lambda, V domains shown) VH: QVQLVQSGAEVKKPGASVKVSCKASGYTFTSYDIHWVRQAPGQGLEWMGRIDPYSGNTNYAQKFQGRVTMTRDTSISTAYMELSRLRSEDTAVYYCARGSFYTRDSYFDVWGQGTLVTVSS VL: DIALTQPASVSGSPGQSITISCTGTSSDVGTYNQVSWYQQHPGKAPKLMIYGVSKRPSGVSNRFSGSKSGNTASLTISGLQAEDEADYYCQSAAIATSVFGGGTKLTVLG . Is its MCF7 pHER3 IC50 below 200 pM?
A. Not met

Q. Here's an entry: MOR13657 (antibody, human IgG1, lambda, V domains shown, Tested as IgG) VH: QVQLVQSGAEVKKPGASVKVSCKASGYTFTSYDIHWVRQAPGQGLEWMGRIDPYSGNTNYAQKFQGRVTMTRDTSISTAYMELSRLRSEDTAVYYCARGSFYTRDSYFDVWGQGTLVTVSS VL: DIALTQPASVSGSPGQSITISCTGTSSDVGTYNQVSWYQQHPGKAPKLMIYGVSKRPSGVSNRFSGSKSGNTASLTISGLQAEDEADYYCSARDGWSEYVFGGGTKLTVLG . Is its MCF7 pHER3 IC50 below 200 pM?
A. Not met

Q. Here's an entry: MOR13666 (antibody, human IgG1, lambda, V domains shown, Tested as IgG) VH: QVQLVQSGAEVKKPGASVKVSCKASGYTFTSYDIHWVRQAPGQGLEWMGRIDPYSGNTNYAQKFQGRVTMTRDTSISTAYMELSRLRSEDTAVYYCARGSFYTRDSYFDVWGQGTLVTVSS VL: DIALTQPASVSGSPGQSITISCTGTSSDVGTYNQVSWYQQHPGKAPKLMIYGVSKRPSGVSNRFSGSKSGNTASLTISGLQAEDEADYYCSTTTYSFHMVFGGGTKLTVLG . Is its MCF7 pHER3 IC50 below 200 pM?
A. Met

Q. Here's an entry: MOR12615 (antibody, human IgG1, lambda, V domains shown, Tested as IgG) VH: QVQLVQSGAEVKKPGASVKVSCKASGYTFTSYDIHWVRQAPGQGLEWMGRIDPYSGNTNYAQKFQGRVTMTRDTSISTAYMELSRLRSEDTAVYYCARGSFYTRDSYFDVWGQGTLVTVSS VL: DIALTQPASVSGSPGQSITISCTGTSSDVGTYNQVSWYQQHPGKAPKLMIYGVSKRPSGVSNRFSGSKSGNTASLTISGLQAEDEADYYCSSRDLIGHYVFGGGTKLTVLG . Is its MCF7 pHER3 IC50 below 200 pM?
A. Not met
